# IC50, IL-8 release, HDFa stimulated with IL-1α per record follows
- experimental system: human IL-1RAcP on cells (human, UniProt Q9NPH3 21-570)
- procedure details: cell-based or functional assay
Entry rule: numbers only, all in nM.

R001031 (CAN04) (antibody, human IgG1, kappa, V domains shown, Variable domains of prior art CAN04 on human IgG1 kappa constant regions with AEASS) VH: QVQLVQSGAEVKKPGSSVKVSCKASGYAFSSSWMNWVRQAPGQGLEWMGRIYPGDGNTHYAQKFQGRVTLTADKSTSTAYMELSSLRSEDTAVYYCGEGYLDPMDYWGQGTLVTVSS VL: DIQMTQSPSSLSASVGDRVTITCSASQGINNYLNWYQQKPGKAPKLLIHYTSGLHAGVPSRFSGSGSGTDYTLTISSLQPEDVATYYCQQYSILPWTFGGGTKVEIKR ... 3.6
h11C5 YKD (antibody, human IgG1, kappa, V domains shown, Variable domains of h11C5 YKD on the same modified IgG1 kappa constant regions (AEASS); Printed as 'h1105' in much of the text; also called h1105) VH: EVQLVESGGGLVQPGGSLRLSCAASGFTFSNYAMSWVRQAPGKGLEWVATVTEGGDYNYYLDDVKGRFTISRDNAKNSLYLQMNSLRAEDTAVYYCARDDWPYFFDYWGQGTLVTVSS VL: DIQMTQSPSSLSASVGDRVTITCRASENIYSNLAWYQQKPGKSPKLLVYGYKNLADVPSRFSGSGSGTDYTLTISSLQPEDFATYYCQHFKTTPRTFGGGTKVEIKR ... 22

The binder identified as Y024084_h_IgG1f_AEASS (antibody, V domains shown, also called Morphosys 24084; Mor Y024084) VH: QVQLVQSGAEVKKPGASVKVSCKASGYTFTSYYMHWVRQAPGQGLEWMGIINPSGGSTSYAQKFQGRVTMTRDTSTSTVYMELSSLRSEDTAVYYCARGFVTSGIDYWGQGTLVTVSS VL: QSVLTQPPSVSAAPGQKVTISCSGSSSNIGNNYVSWYQQLPGTAPKLLIYDNNKRPSGIPDRFSGSKSGTSATLGITGLQTEDEADYYCQTWTYTGRLWIVFGGGTKLTVLG registered its IC50, IL-8 release, HDFa stimulated with IL-1α at 20

Documented IC50, IL-8 release, HDFa stimulated with IL-1α of Y024149_h_IgG1f_AEASS (antibody, V domains shown, Human IgG1f with AEASS effector-silencing residues, kappa light chain) VH: EVQLVESGGGLVQPGGSLRLSCAASGGTFGGSAMHWVRQAPGKGLVWVSRILTYGGIATYAESVKGRFTISRDNAKNTLYLQMNSLRAEDTAVYYCARGSSEYPKFDIWGQGTLVTVSS VL: DIQMTQSPSTLSASVGDRVTITCRASQSISSWLAWYQQKPGKAPKLLIYDASSLESGVPSRFSGSGSGTEFTLTISSLQPEDFATYYCHQLLIYPHTFGQGTKVEIKR : 1.1

Given item Y024148_h_IgG1f_AEASS (antibody, V domains shown, Human IgG1f with AEASS effector-silencing residues, kappa light chain) VH: EVQLVESGGGLVQPGGSLRLSCAASGGTIGGSAVHWVRQAPGKGLVWVSRILTYSSTTQYAESVKGRFTISRDNAKNTLYLQMNSLRAEDTAVYYCARGSSEYPKFDIWGQGTLVTVSS VL: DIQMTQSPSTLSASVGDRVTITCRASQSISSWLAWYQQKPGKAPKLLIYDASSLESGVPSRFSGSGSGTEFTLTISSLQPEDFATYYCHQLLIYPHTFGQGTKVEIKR , the value recorded as its IC50, IL-8 release, HDFa stimulated with IL-1α is 1.2

Item: R001032 (1A05) (antibody, human IgG1, kappa, V domains shown, Rabbit variable domains of prior art 1A05 on human IgG1 kappa constant regions with AEASS; also called P013.S.01.B.A05) VH: LEQSGGGAEGGLVKPGGSLELCCKASGFSLSTSYWRCWVRQAPGKGLEWIGCIYAGSGDVTYYANWVNGRFTLSRDIDQSTGCLQLNSLTAADTAMYYCASGVGFGYFNLWGQGTLVTVSS VL: ALVMTQTPSPVSAAVGGTVTINCQASEDIYSNLAWFQQKPGQPPKLLIYDASTLASGVPSRFSGSGSGTEFTLTISGLQSDDAATYYCLGVYTHISADNAFGGGTEVVVKR | IC50, IL-8 release, HDFa stimulated with IL-1α: 24

FYI, the data here is from patent US20220411517A1.
